measurement_target: CDK2/CycE (Homo sapiens (Human), UniProt P24941)
protocol_notes: CDK2/CycE kinase assay (Assay 2)
conditions_used: read-out: CDK2/CycE (Assay 2) Concentration of the half-maximal inhibition of the enzyme activity, IC50
Give pIC50 for every item shown.
pIC50 here: minus log base 10 of the concentration, concentration in moles per litre.

QUERY: Fill blank: measured pIC50 of the compound C[C@@H](Oc1nc(Nc2ccc(S(C)(=O)=O)cc2)ncc1C(F)(F)F)C(C)(C)O is ____.
RESULT: 7.92

QUERY: Can you look up the measured pIC50 of C[C@@H](O)[C@@H](C)Oc1nc(Nc2ccc(S(=O)(=O)C3CC3)cc2)ncc1C(F)(F)F for me?
RESULT: 7.80

QUERY: Sample CS(=O)(=O)c1ccc(Nc2ncc(C(F)(F)F)c(OC3CCCCC3)n2)cc1 — what was its pIC50?
RESULT: 6.32

QUERY: Can you share its pIC50? I mean this compound: C[C@@H](O)[C@@H](C)Oc1nc(Nc2ccc(S(=O)(=O)c3ccccc3)cc2)ncc1C(F)(F)F
RESULT: 7.44

QUERY: Record request: pIC50 value, item COC[C@@H](C)Oc1nc(Nc2ccc(S(C)(=O)=O)cc2)ncc1C(F)(F)F
RESULT: 7.92

QUERY: Reported pIC50 for C[C@@H](O)[C@@H](C)Oc1nc(Nc2ccc(S(=O)(=O)C3CCCC3)cc2)ncc1C(F)(F)F : what is it?
RESULT: 7.68

QUERY: Name the recorded pIC50 for C=CCOc1nc(Nc2ccc(S(C)(=O)=O)cc2)ncc1C(F)(F)F .
RESULT: 7.31

QUERY: What measured pIC50 goes with C=CCS(=O)(=O)c1ccc(Nc2ncc(C(F)(F)F)c(O[C@H](C)C(C)(C)O)n2)cc1 ?
RESULT: 7.96

QUERY: Could you tell me which pIC50 is on file for C[C@@H](O)[C@@H](C)Nc1nc(Nc2ccc(S(=O)(=O)C3CC3)cc2)ncc1C(F)(F)F [C1, reference compound] ?
RESULT: 8.22

QUERY: # get_value(readout='pIC50', item= CC(C)S(=O)(=O)c1ccc(Nc2ncc(C(F)(F)F)c(O[C@H](C)[C@@H](C)O)n2)cc1 )
RESULT: 8.22

QUERY: Please give the measured pIC50 for this compound: C[C@@H](O)[C@@H](C)Nc1nc(Nc2ccc(S(C)(=O)=O)cc2)ncc1C(F)(F)F [C2, reference compound]
RESULT: 8.40

QUERY: Name the reported pIC50 value associated with the compound C#CCS(=O)(=O)c1ccc(Nc2ncc(C(F)(F)F)c(O[C@H](C)C(C)(C)O)n2)cc1
RESULT: 7.37

QUERY: Which pIC50 is listed for C[C@@H](O)[C@@H](C)Oc1nc(Nc2ccc(S(=O)(=O)C(F)F)cc2)ncc1C(F)(F)F ?
RESULT: 7.92

QUERY: Can you look up the measured pIC50 of C#CCOc1nc(Nc2ccc(S(C)(=O)=O)cc2)ncc1C(F)(F)F for me?
RESULT: 7.60

QUERY: Which pIC50 value is on record for C[C@@H](O)[C@@H](C)Oc1nc(Nc2ccc(S(=O)(=O)CCO)cc2)ncc1C(F)(F)F ?
RESULT: 8.52

QUERY: Name the reported pIC50 value associated with the compound C[C@@H](Oc1nc(Nc2ccc(S(=O)(=O)C3CC3)cc2)ncc1C(F)(F)F)C(C)(C)O
RESULT: 7.68

QUERY: Field request: pIC50 | item: CS(=O)(=O)c1ccc(Nc2ncc(C(F)(F)F)c(OCCC(F)(F)F)n2)cc1
RESULT: 7.03

QUERY: Which pIC50 is reported for this compound? C[C@@H](Nc1nc(Nc2ccc(S(C)(=O)=O)cc2)ncc1C(F)(F)F)C(C)(C)O [C3, reference compound]
RESULT: 8.10
